Exercise: for every item that follows, state its recorded Post-emergence Crop Selectivity, percentage phytotoxicity, Wheat − CQC.
system: Winter Wheat variety 'Hereward'; assay: Glasshouse assay for crop safety, post-emergence, +/- safener cloquintocet-mexyl (CQC), percentage phytotoxicity; type: in vivo; settings: 250 g/ha, without safener cloquintocet-mexyl (CQC), evaluated after 13 days, 100=total damage, 0=no damage
One number for each entry, in %.

C#Cc1cc(C)c(C2C(=O)CC(CC(=O)NC(C)(C)C)C2=O)c(C)c1 (centres unmarked) [Compound A43]: 90
Cc1cc(-c2cncnc2)cc(C)c1C1C(=O)CC(CC(=O)NCc2cccc(Cl)c2)C1=O (centres unmarked) [Compound A142]: 70
CCCCNC(=O)CC1CC(=O)C(c2c(C)cc(C)cc2C)C1=O (centres unmarked) [Compound A12]: 70
Cc1cc(C)c(C2C(=O)CC(CC(=O)NC(C)(C)C)C2=O)c(C)c1 (centres unmarked) [Compound A2]: 10
CCC(C)(C)NC(=O)CC1CC(=O)C(c2c(C)cc(C)cc2C)C1=O (centres unmarked) [Compound A27]: 30

Please state, for each entry, its recorded Post-emergence Crop Selectivity, percentage phytotoxicity, Wheat − CQC.
1. Cc1cc(C)c(C2C(=O)CC(CC(=O)NCC(C)C)C2=O)c(C)c1 (centres unmarked) [Compound A5]
2. Cc1cc(-c2ncc(F)cc2F)cc(C)c1C1C(=O)CC(CC(=O)NC(C)(C)C)C1=O (centres unmarked) [Compound A85]
3. Cc1cc(-c2ncc(Cl)cc2F)cc(C)c1C1C(=O)CC(CC(=O)NC(C)(C)C)C1=O (centres unmarked) [Compound A39]

(A)
[80, 80, 80]
